System: HCT-15 colon
Experiment: NCI tumour cell line growth inhibition, 48 h; in the data active means GI50 below about 0.43 µM; inactive means the rest
Result category, one only: active, inactive

>>> label_class("CCN1C(=O)N(CC)C2C1NC(=S)N2/N=C/C=C/c1ccccc1OC (stereo not drawn)")
"active"

Ask: Lab log entry: Brc1ccc(Nc2nc3ccccc3nc2Nc2ccc(Br)cc2)cc1 — outcome as called in the assay?
Reply: inactive

Ask: Now the compound COc1cc(/C=C/C(=O)c2ccc(F)cc2)ccc1OCCCCCOc1cc2c(cc1OC)C(=O)N1CCCC1C=N2 (stereo not drawn)
Reply: active

====

System: OVCAR-5 ovarian
Assay: NCI tumour cell line growth inhibition, 48 h
QUANTITY: TGI

Ask: Please give the measured TGI for this molecule: O=c1nc2c(c(-c3ccc(F)cc3)[nH]1)COC/C2=C\c1ccc(F)cc1
Reply: > 100 µM

Ask: Now the molecule COc1ccc(-c2coc3cc(O)cc(O)c3c2=O)cc1
Reply: > 10 µM

Ask: Now the molecule O=C1NC(=O)C(c2ccccc2)=C1Nc1ccccc1
Reply: > 25 µM

Ask: Now the molecule CCCCCCCCCC/C=C/C=O
Reply: > 100 µM

Values compiled from PubChem BioAssay (NCI).
